test-method-notes: chemical genetic growth profiling, strain panel (AID 1159580);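 note: tested at 20 µM; growth read once vehicle control cultures reached saturation at 30 °C; 1 = growth at the plate median or of vehicle wells; lower values mean less growth of the strain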
condition-notes: S. cerevisiae deletion strains, growth OD, locus YHR129C, strain ARP1, hits give low values
The whole screen tested about 5,500 compounds, of which about 2,000 (36%) were called active. Roughly 18% stayed inconclusive and do not appear here. The list shows a part of the results.
test-readout: normalized growth
Form field (numeric): enter value without unit.

Please supply the value of reported normalized growth for the item CCc1ccc2c(O)c3c(cc2c1C(=O)OC)C(=O)c1c(O)ccc(O)c1C3=O 0.978

Return normalized growth (reported value) for this compound: Cc1c(OCC(F)(F)F)ccnc1CS(=O)c1nc2ccccc2[nH]1 (stereo unspecified) 0.991

For CC(=O)N1CCCC1C(=O)O (stereo unspecified) , write its normalized growth. 1.01

Specify normalized growth for COc1cc(C(=O)N2CCOCC2)cc(OC)c1OC and stop. 0.998

Supply normalized growth value. Item: COc1nc(NC(C)C)nc(NC(C)C)n1 1.01

Name the recorded normalized growth of the compound listed here: NC(N)=Nc1ccc(Cl)cc1 1.01

Look up normalized growth of Nc1nc(/C(=C/CC(=O)O)C(=O)N[C@@H]2C(=O)N3C(C(=O)O)=CCS[C@H]23)cs1 and report it. 0.989

Dear colleague, please send me the reported normalized growth for COC(=O)C[C@H]1C(C)(C)[C@@H](O)[C@@H]2CC3=C4CC(O)O[C@@H](c5ccoc5)[C@]4(C)CCC3[C@@]1(C)C2=O (stereo partly specified) when you can. 1

Give the value of normalized growth reported for the following: O=C(O)c1cc(O)ccc1O 0.994

Please indicate normalized growth recorded for COC(=O)NC(=S)Nc1ccccc1NC(=S)NC(=O)OC 1.01

Tell me measured normalized growth for COc1c(O)cc2c(c1O)[C@H]1O[C@H](CO)[C@@H](O)[C@H](O)[C@@H]1OC2=O please. 0.988
